# System Tested: L-lactate dehydrogenase (Plasmodium falciparum (isolate CDC / Honduras))
# Test Details: PfLDH activity inhibition – cell lysate, 3D7 strain, counter-screen for P. falciparum growth inhibition project (AID 2304);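 further: 0% = vehicle and 100% = reference inhibitor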
# Measurement Parameters: P. falciparum 3D7 crude extract, LDH APAD/NBT absorbance; at 2 µM; stronger effect = higher value
Value Type: inhibition (%)
Numeric answer only, unit % assumed.

Consider the following illustrative entries.
CCOc1ccc(Nc2ccc3nonc3c2S(=O)(=O)Nc2ccc(OCC)cc2)cc1: -2
CCN1CCC(N(Cc2ccc(-c3ccc(C(F)(F)F)cc3)cc2)C(=O)Cn2c(CCc3cccc(F)c3F)cc(=O)c3c2CCC3)CC1: -1
COc1ccc2nccc([C@@H](O)CN3CCC(NC(=O)Cc4cc5ccccc5s4)CC3)c2c1: 7
Cc1cccc2[nH]c(-c3ccc(-c4ccc(CNCc5ccc(CN)cc5)cc4)s3)nc12: -8
COc1cccc2cc(C(=O)N[C@@H](CC(C)C)C(=O)N[C@H](/C=N/N(C)C(=O)OC(C)(C)C)CC(=O)OC(C)(C)C)oc12: -8
COc1ccc(Br)cc1/C=C/C(=O)Nc1ccc(C2CCCN(C)C2)cc1 (stereo not drawn): -2
Cn1cc(CN2CCC(OC(c3ccccc3)c3ccc(Cl)cc3)CC2)cn1 (stereo not drawn): 5
CSc1ccc2ccccc2c1CCNCCCCNCCc1c(SC)ccc2ccccc12: 3
Cc1cc(-c2ccc(CNCCc3cccs3)cc2)ccc1S(=O)(=O)NCc1ccccc1: 3
COc1cc(CNCCCNc2cc(=O)c3ccccc3[nH]2)c2c(c1)C(C)CN2C(=O)OC(C)(C)C (stereo not drawn): 2

// next item, inhibition requested
Entry COc1cc(C)cc(CN2CCC(Cc3ccccc3)CC2)c1O has what inhibition?
0

###

# Test Details: antimalarial activity against Dd2 strain (AID 2302);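 further: 0% = DMSO untreated growth and 100% = chloroquine plus artemisinin killed control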
# Measurement Parameters: P. falciparum Dd2 in RBCs, LDH growth readout, 72 h; at 2 µM; stronger effect = higher value
Known growth inhibition of a selection of compounds
Numeric answer only, unit % assumed.

Consider the following illustrative entries.
CCN1CCC(N(Cc2ccc(-c3ccc(C(F)(F)F)cc3)cc2)C(=O)Cn2c(CCc3cccc(F)c3F)cc(=O)c3c2CCCC3)CC1: 96
Cc1[nH]cnc1-c1cccc(NC(=O)c2cc3ccccc3s2)c1: 48
Cc1cccc(Cn2c(Cc3ccccc3)nnc2Sc2ccc([N+](=O)[O-])c(C#N)c2)c1: 3
COc1ccc(-c2cccc(NC(=O)c3ccc(C#N)cc3)c2)cc1CN(C)CCN(C)C: 18
O=C(Cc1cnc[nH]1)Nc1cccc(-c2cccc(-c3nc4ccc(C(F)(F)F)cc4[nH]3)c2)c1: 101
O=[N+]([O-])c1ccc2c(c1)c1ccccc1n2Cc1ccccc1O: 84
O=C(/C=C/c1ccc(Cl)c(Cl)c1)NCCCCCN1CCC(NC(=O)Nc2cccc(F)c2)CC1: 6
COc1ccc(CN2CCC(N3CC(c4ccccc4)(c4ccccc4)OCC3=O)C2)c(O)c1 (centres undefined): 27

// next item, growth inhibition requested
Entry CCN1C(=O)N(CCC(C)C)C2(CCN(Cc3ccc(OC)cc3O)CC2)C1=O has what growth inhibition?
77

###

# Test Details: human hepatoma cell viability loss – ATP luminescence, cytotoxicity control for P. falciparum antimalarial project, primary screen (AID 2303);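 further: 0% = DMSO wells and 100% = digitonin-killed cells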
# Measurement Parameters: HepG2 viability, 24-48 h, at 10 µM, stronger effect = higher value
Under this convention, 1 (yes) denotes inhibition strictly below 20% and 0 (no) denotes inhibition at or above 20%.

CCC(C)(C)c1ccc(OCCCC(=O)Nc2ccc(Cl)c([N+](=O)[O-])c2)c(C(C)(C)CC)c1: 1 (yes)
Cc1cnc(NCCc2ccc(F)cc2)nc1NCCC(=O)Nc1ccccc1: 1 (yes)
CCOc1ccc(C(=O)Nc2cc(Br)c3c(c2)CNCC3)cc1Br: 1 (yes)
CCC(C)NC(=O)Nc1ccc(-c2cccc(-c3nc4ccccc4[nH]3)c2)cc1 (stereo not given): 0 (no)
COc1ccc2c(c1)c(C1CCN(CCCCNC(=O)c3ccc(-c4ccc(C(F)(F)F)cc4)cc3)CC1)cn2C(C)C: 0 (no)
CCCC(=O)NC(c1ccc(C)cc1)c1ccc2cccnc2c1O (stereo not given): 0 (no)
Cc1cc(N2CCC(NS(=O)(=O)c3ccccc3)CC2)nc(Nc2cccc(C#N)c2)n1: 0 (no)
Cc1nc2ccc(-c3nc4ccc(N)cc4[nH]3)cc2[nH]1: 1 (yes)
COc1ccc(N2CCN(CCCCNC(=O)c3ccc(NC(=O)c4cccc(Cl)c4)cc3)CC2)c(OC)c1: 1 (yes)
NC(=O)c1ccccc1OCC(=O)Nc1cccc(-c2ccc(-c3nc4ccc(C(F)(F)F)cc4[nH]3)cc2)c1: 0 (no)

Next item in the queue.
Consider CC(C)N1CCCN(C(=O)C2CCN(c3ccc(C(=O)N4CCCC4)cn3)CC2)CC1 . Does its inhibition lie strictly below 20%?
0 (no)
